Target: Carboxypeptidase Y (Saccharomyces cerevisiae (strain ATCC 204508 / S288c) (Baker's yeast), UniProt P00729)
Sequence (P00729 whole entry): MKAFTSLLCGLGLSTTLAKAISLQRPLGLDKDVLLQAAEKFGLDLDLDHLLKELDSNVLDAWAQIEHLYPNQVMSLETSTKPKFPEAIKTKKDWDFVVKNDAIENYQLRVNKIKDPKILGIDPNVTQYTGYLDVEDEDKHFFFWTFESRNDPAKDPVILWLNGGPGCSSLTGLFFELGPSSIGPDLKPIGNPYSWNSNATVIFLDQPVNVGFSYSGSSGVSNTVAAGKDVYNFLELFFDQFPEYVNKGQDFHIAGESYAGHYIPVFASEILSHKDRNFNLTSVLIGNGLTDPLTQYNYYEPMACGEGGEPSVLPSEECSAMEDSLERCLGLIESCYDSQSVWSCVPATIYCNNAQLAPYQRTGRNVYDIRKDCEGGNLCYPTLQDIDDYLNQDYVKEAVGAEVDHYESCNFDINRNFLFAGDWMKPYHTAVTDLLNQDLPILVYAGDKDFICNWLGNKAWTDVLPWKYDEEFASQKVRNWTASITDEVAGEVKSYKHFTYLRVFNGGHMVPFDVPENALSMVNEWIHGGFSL
Assay: Prodrug activation assessed as yeast carboxypeptidase Y mediated (2S)-2-((((2R,3S,4R,5R)-5-(6-azido-5-fluoro-2,4-dioxo-3,4-dihydropyrimidin-1(2H)-yl)-3,4-dihydroxytetrahydrofuran-2-yl)methoxy)(phenoxy)phosphorylamino)propanoic acid formation at pH 7.6 measured within 10 mins by 31P NMR analysis
Settings: pH 7.6, 10 min
result type: Drug metabolism

**Q:** Name the reported Drug metabolism value associated with the compound C[C@H](NP(=O)(OC[C@H]1O[C@@H](n2c(N=[N+]=[N-])c(F)c(=O)[nH]c2=O)[C@H](O)[C@@H]1O)Oc1ccccc1)C(=O)O (stereo partly specified)
**A:** 4.68 to 4.87 ppm

----------
experiment: Half life in acetone d6 at pH 7.6 Trizma buffer by 31P NMR analysis; type: physicochemical; details: Trizma buffer with acetone-d6, pH 7.6
result type: half-life

**Q:** Name the reported half-life value associated with the compound C[C@H](NP(=O)(O)OC[C@H]1O[C@@H](n2c(N=[N+]=[N-])c(F)c(=O)[nH]c2=O)[C@H](O)[C@@H]1O)C(=O)O
**A:** < 5 min

----------
Please respond with reported IC50 for every item in the list.
test: Cytotoxicity against human Hs445 cells after 72 hrs by MTS assay; format: functional, cell-based; conditions: Hs 445, 72 h

**Q:** Name the reported IC50 value associated with the compound C[C@H](NP(=O)(OC[C@H]1O[C@@H](n2c(N=[N+]=[N-])c(F)c(=O)[nH]c2=O)[C@H](O)[C@@H]1O)Oc1cccc2ccccc12)C(=O)OCc1ccccc1 (stereo partly specified)
**A:** 15 µM

**Q:** # repeat for CCCCCCOC(=O)[C@H](C)NP(=O)(OC[C@H]1O[C@@H](n2c(N=[N+]=[N-])c(F)c(=O)[nH]c2=O)[C@H](O)[C@@H]1O)Oc1cccc2ccccc12 (stereo partly specified)
**A:** 6 µM

**Q:** # repeat for CCCCCCOC(=O)[C@H](C)NP(=O)(OC[C@H]1O[C@@H](n2c(N=[N+]=[N-])c(F)c(=O)[nH]c2=O)[C@H](O)[C@@H]1O)Oc1ccccc1 (stereo partly specified)
**A:** 18 µM

**Q:** # repeat for CCCCCCOC(=O)[C@H](C)NP(=O)(OC[C@H]1O[C@@H](n2c(C)c(F)c(=O)[nH]c2=O)[C@H](O)[C@@H]1O)Oc1ccccc1 (stereo partly specified)
**A:** > 50 µM

**Q:** # repeat for CCOC(=O)[C@H](C)NP(=O)(OC[C@H]1O[C@@H](n2c(N=[N+]=[N-])c(F)c(=O)[nH]c2=O)[C@H](O)[C@@H]1O)Oc1ccccc1 (stereo partly specified)
**A:** 44 µM

**Q:** # repeat for Cc1c(F)c(=O)[nH]c(=O)n1[C@@H]1O[C@H](CO)[C@@H](O)[C@H]1O
**A:** 7 µM

----------
test system: SW-620; experiment: Cytotoxicity against human SW620 cells after 72 hrs by MTS assay; assay type: functional, cell-based; conditions: SW-620, 72 h
result type: pIC50
Scale note: pIC50 = -log10(concentration in M).

**Q:** Find pIC50 (SW-620) for the entry O=c1[nH]c(=O)n([C@@H]2O[C@H](CO)[C@@H](O)[C@H]2O)c(I)c1F
**A:** 6.30

**Q:** # repeat for C[C@H](NP(=O)(OC[C@H]1O[C@@H](n2c(N=[N+]=[N-])c(F)c(=O)[nH]c2=O)[C@H](O)[C@@H]1O)Oc1cccc2ccccc12)C(=O)OCc1ccccc1 (stereo not given in full)
**A:** 4.55

**Q:** # repeat for [N-]=[N+]=Nc1c(F)c(=O)[nH]c(=O)n1[C@@H]1O[C@H](CO)[C@@H](O)[C@H]1O
**A:** 5.10

**Q:** # repeat for CCCCCOC(=O)[C@H](C)NP(=O)(OC[C@H]1O[C@@H](n2c(I)c(F)c(=O)[nH]c2=O)[C@H](O)[C@@H]1O)Oc1ccccc1 (stereo not given in full)
**A:** 5.95

**Q:** # repeat for CCCCCCOC(=O)[C@H](C)NP(=O)(OC[C@H]1O[C@@H](n2c(N=[N+]=[N-])c(F)c(=O)[nH]c2=O)[C@H](O)[C@@H]1O)Oc1cccc2ccccc12 (stereo not given in full)
**A:** 4.68

**Q:** # repeat for Cc1c(F)c(=O)[nH]c(=O)n1[C@@H]1O[C@H](CO)[C@@H](O)[C@H]1O
**A:** 5.07
